# System: E. coli UBMS 89-1 Tet M
# assay-overview: microbe, parasite or virus in culture
# Type: cell-based
# measurement-conditions: E. coli UBMS 89-1 Tet M
endpoint-name: MIC

Field: example entries. Status: answers known.
compound	endpoint-name	measured
CN(C)c1cc(NC(=O)CNCCN2CCCCC2)c(O)c2c1C[C@H]1C[C@H]3[C@H](N(C)C)C(O)=C(C(N)=O)C(=O)[C@@]3(O)C(O)=C1C2=O [U]	MIC	16 µg/mL
CN(C)c1cc(NC(=O)CNCCF)c(O)c2c1CC1CC3C(N(C)C)C(O)=C(C(N)=O)C(=O)C3(O)C(O)=C1C2=O (stereo not shown) [T]	MIC	8 µg/mL
CN(C)c1cc(NC(=O)CNCC2CC2)c(O)c2c1CC1CC3C(N(C)C)C(O)=C(C(N)=O)C(=O)C3(O)C(O)=C1C2=O.Cl.Cl (stereo not shown) [K]	MIC	0.5 µg/mL

input: Give its MIC value. Item: CN(C)c1cc(NC(=O)CNCC(F)(F)F)c(O)c2c1CC1CC3C(N(C)C)C(O)=C(C(N)=O)C(=O)C3(O)C(O)=C1C2=O (stereo not shown) [S]
output: 32 µg/mL

input: Give its MIC value. Item: CN(C)c1cc(NC(=O)CNOCc2ccccc2)c(O)c2c1C[C@H]1C[C@H]3[C@H](N(C)C)C(O)=C(C(N)=O)C(=O)[C@@]3(O)C(O)=C1C2=O [X]
output: 16 µg/mL

input: Give its MIC value. Item: CN(CCO)CC(=O)Nc1cc(N(C)C)c2c(c1O)C(=O)C1=C(O)[C@]3(O)C(=O)C(C(N)=O)=C(O)[C@@H](N(C)C)C3CC1C2 (stereo partly shown) [Q]
output: 32 µg/mL

input: Give its MIC value. Item: CN(C)c1cc(NC(=O)C2CCCN2C(=O)C(F)(F)F)c(O)c2c1CC1CC3[C@H](N(C)C)C(O)=C(C(N)=O)C(=O)[C@@]3(O)C(O)=C1C2=O.Cl.Cl (stereo partly shown) [A]
output: 8 µg/mL

input: Give its MIC value. Item: CN(C)c1cc(NC(=O)CNN2CCCCC2)c(O)c2c1CC1CC3C(N(C)C)C(O)=C(C(N)=O)C(=O)C3(O)C(O)=C1C2=O (stereo not shown) [W]
output: > 32 µg/mL

input: Give its MIC value. Item: CN(C)c1cc(NC(=O)CNCCCCO)c(O)c2c1C[C@H]1C[C@H]3[C@H](N(C)C)C(O)=C(C(N)=O)C(=O)[C@@]3(O)C(O)=C1C2=O [R]
output: 32 µg/mL

input: Give its MIC value. Item: CC1CCN(CC(=O)Nc2cc(N(C)C)c3c(c2O)C(=O)C2=C(O)C4(O)C(=O)C(C(N)=O)=C(O)C(N(C)C)C4CC2C3)CC1.Cl.Cl (stereo not shown) [G]
output: 0.5 µg/mL

###

# System: E. coli J3272 Tet C
# assay-overview: microbe, parasite or virus in culture
# Assay type: cell-based
# measurement-conditions: E. coli J3272 Tet C
Where a name gives a salt, the structure may show the parent alone.
Below is a list of entries, each paired with its recorded MIC value.

molecule	measured
CN(CCO)CC(=O)Nc1cc(N(C)C)c2c(c1O)C(=O)C1=C(O)[C@]3(O)C(=O)C(C(N)=O)=C(O)[C@@H](N(C)C)C3CC1C2 (some centres unmarked) [Q]	> 32 mg/L
CN(C)c1cc(NC(=O)CNCCN2CCCCC2)c(O)c2c1C[C@H]1C[C@H]3[C@H](N(C)C)C(O)=C(C(N)=O)C(=O)[C@@]3(O)C(O)=C1C2=O [U]	16 mg/L
CN(C)c1cc(NC(=O)C2CCCN2C(=O)C(F)(F)F)c(O)c2c1CC1CC3[C@H](N(C)C)C(O)=C(C(N)=O)C(=O)[C@@]3(O)C(O)=C1C2=O.Cl.Cl (some centres unmarked) [A]	8 mg/L
CCCCCCCNCC(=O)Nc1cc(N(C)C)c2c(c1O)C(=O)C1=C(O)[C@]3(O)C(=O)C(C(N)=O)=C(O)[C@@H](N(C)C)C3CC1C2 (some centres unmarked) [J, dihydrochloride]	2 mg/L
CN(C)c1cc(NC(=O)CNCCO)c(O)c2c1CC1CC3C(N(C)C)C(O)=C(C(N)=O)C(=O)C3(O)C(O)=C1C2=O.Cl (centres unmarked) [P]	> 32 mg/L

input: Give its MIC value. Item: CN(C)c1cc(NC(=O)CNN2CCCCC2)c(O)c2c1CC1CC3C(N(C)C)C(O)=C(C(N)=O)C(=O)C3(O)C(O)=C1C2=O (centres unmarked) [W]
output: > 32 mg/L

input: Give its MIC value. Item: C#CCN(C)CC(=O)Nc1cc(N(C)C)c2c(c1O)C(=O)C1=C(O)[C@]3(O)C(=O)C(C(N)=O)=C(O)[C@@H](N(C)C)[C@@H]3C[C@@H]1C2 [V]
output: > 32 mg/L

input: Give its MIC value. Item: CN(C)c1cc(NC(=O)CNOCc2ccccc2)c(O)c2c1C[C@H]1C[C@H]3[C@H](N(C)C)C(O)=C(C(N)=O)C(=O)[C@@]3(O)C(O)=C1C2=O [X]
output: > 32 mg/L

###

# Test system: Enterococcus 12201
# assay-overview: MIC, agar dilution
# Type: cell-based
# measurement-conditions: Enterococcus 12201
Counter-ions that a name gives are not always drawn.
Below is a list of entries, each paired with its recorded MIC value.
Answer format: numeric, µg/mL implied, no suffix.

Field: example entries. Status: answers known.
compound	MIC (µg/mL)
CCCCCCCNCC(=O)Nc1cc(N(C)C)c2c(c1O)C(=O)C1=C(O)[C@]3(O)C(=O)C(C(N)=O)=C(O)[C@@H](N(C)C)C3CC1C2 (stereo partly drawn) [J, dihydrochloride]	0.5
CN(C)c1cc(NC(=O)CNCC(F)(F)F)c(O)c2c1CC1CC3C(N(C)C)C(O)=C(C(N)=O)C(=O)C3(O)C(O)=C1C2=O (stereo not drawn)	4
CN(CCO)CC(=O)Nc1cc(N(C)C)c2c(c1O)C(=O)C1=C(O)[C@]3(O)C(=O)C(C(N)=O)=C(O)[C@@H](N(C)C)C3CC1C2 (stereo partly drawn)	4
CN(C)c1cc(NC(=O)CNCCF)c(O)c2c1CC1CC3C(N(C)C)C(O)=C(C(N)=O)C(=O)C3(O)C(O)=C1C2=O (stereo not drawn)	2

input: Give its MIC value. Item: CN(C)c1cc(NC(=O)CNCCO)c(O)c2c1CC1CC3C(N(C)C)C(O)=C(C(N)=O)C(=O)C3(O)C(O)=C1C2=O.Cl (stereo not drawn)
output: 8

###

# System: E. coli #311 (MP)
# assay-overview: MIC, agar dilution
# Type: cell-based
# measurement-conditions: E. coli #311 (MP)
endpoint-name: MIC

Field: example entries. Status: answers known.
compound	study-system	measured
C#CCN(C)CC(=O)Nc1cc(N(C)C)c2c(c1O)C(=O)C1=C(O)[C@]3(O)C(=O)C(C(N)=O)=C(O)[C@@H](N(C)C)[C@@H]3C[C@@H]1C2	E. coli #311 (MP)	> 32 µg/mL
CN(C)c1cc(NC(=O)CNCC(F)(F)F)c(O)c2c1CC1CC3C(N(C)C)C(O)=C(C(N)=O)C(=O)C3(O)C(O)=C1C2=O (stereo not drawn)	E. coli #311 (MP)	> 32 µg/mL

Lab note: next compound to report on.
input: Give its MIC value. Item: CN(CCO)CC(=O)Nc1cc(N(C)C)c2c(c1O)C(=O)C1=C(O)[C@]3(O)C(=O)C(C(N)=O)=C(O)[C@@H](N(C)C)C3CC1C2 (stereo partly drawn)
output: 32 µg/mL

###

Below is a list of entries, each paired with its recorded MIC value.
# Tested on: S. aureus ROSE (MP)
# assay-overview: MIC, agar dilution
# Format: cell-based
# measurement-conditions: S. aureus ROSE (MP)

compound	MIC
CN(C)c1cc(NC(=O)CNCCO)c(O)c2c1CC1CC3C(N(C)C)C(O)=C(C(N)=O)C(=O)C3(O)C(O)=C1C2=O.Cl (stereo not shown)	> 32 µg/mL
CN(C)c1cc(NC(=O)CNOCc2ccccc2)c(O)c2c1C[C@H]1C[C@H]3[C@H](N(C)C)C(O)=C(C(N)=O)C(=O)[C@@]3(O)C(O)=C1C2=O	16 µg/mL
CN(C)c1cc(NC(=O)CNN2CCCCC2)c(O)c2c1CC1CC3C(N(C)C)C(O)=C(C(N)=O)C(=O)C3(O)C(O)=C1C2=O (stereo not shown)	> 32 µg/mL

input: Give its MIC value. Item: CN(CCO)CC(=O)Nc1cc(N(C)C)c2c(c1O)C(=O)C1=C(O)[C@]3(O)C(=O)C(C(N)=O)=C(O)[C@@H](N(C)C)C3CC1C2 (stereo partly shown)
output: > 32 µg/mL

###

# Tested on: S. aureus ATCC 29213
# assay-overview: MIC, agar dilution
# Format: cell-based
# measurement-conditions: S. aureus ATCC 29213
Structures can show the parent of a compound that is named as a salt.
Flag rule - MIC less than 4 µg/mL flags Yes; the remaining entries get No.

# example entries with known answers
compound	class
CCCCCCCNCC(=O)Nc1cc(N(C)C)c2c(c1O)C(=O)C1=C(O)[C@]3(O)C(=O)C(C(N)=O)=C(O)[C@@H](N(C)C)C3CC1C2 (stereo partly drawn) [J, dihydrochloride]	Yes
CN(C)c1cc(NC(=O)CNCC2CC2)c(O)c2c1CC1CC3C(N(C)C)C(O)=C(C(N)=O)C(=O)C3(O)C(O)=C1C2=O.Cl.Cl (stereo not drawn) [K]	Yes
CN(C)c1cc(NC(=O)CNOCc2ccccc2)c(O)c2c1C[C@H]1C[C@H]3[C@H](N(C)C)C(O)=C(C(N)=O)C(=O)[C@@]3(O)C(O)=C1C2=O [X]	Yes
CN(C)c1cc(NC(=O)CNCCCCO)c(O)c2c1C[C@H]1C[C@H]3[C@H](N(C)C)C(O)=C(C(N)=O)C(=O)[C@@]3(O)C(O)=C1C2=O [R]	No
CN(C)c1cc(NC(=O)CNCCO)c(O)c2c1CC1CC3C(N(C)C)C(O)=C(C(N)=O)C(=O)C3(O)C(O)=C1C2=O.Cl (stereo not drawn) [P]	No

input: Consider CN(C)c1cc(NC(=O)CNN2CCCCC2)c(O)c2c1CC1CC3C(N(C)C)C(O)=C(C(N)=O)C(=O)C3(O)C(O)=C1C2=O (stereo not drawn) [W] . Does its MIC lie strictly below 4 µg/mL?
output: No

input: Consider CN(C)c1cc(NC(=O)CNCCN2CCCCC2)c(O)c2c1C[C@H]1C[C@H]3[C@H](N(C)C)C(O)=C(C(N)=O)C(=O)[C@@]3(O)C(O)=C1C2=O [U] . Does its MIC lie strictly below 4 µg/mL?
output: No

input: Consider CN(CCO)CC(=O)Nc1cc(N(C)C)c2c(c1O)C(=O)C1=C(O)[C@]3(O)C(=O)C(C(N)=O)=C(O)[C@@H](N(C)C)C3CC1C2 (stereo partly drawn) [Q] . Does its MIC lie strictly below 4 µg/mL?
output: No
